Tested on: UACC-62 melanoma
assay.notes: NCI-60 one-dose screen, 48 h (100 = growth as untreated, 0 = no growth, -100 = all killed)
applied.conditions: 10 µM unless noted
The panel holds about 83,000 compounds, 20% with a hit somewhere; the sample as a whole holds those more often. Calls of active or inactive are those of the source. Rule for the calls: active = growth percent below 10; inactive = the rest.
Field: growth. Provide a value for each of the compounds that follow.

In one line, give reported growth of the entry CNCc1cccc2c1OCCOCCOCCN(CCN1CCOCC1)S(=O)(=O)c1ccc(cc1)-c1cnc(N)c(n1)C(=O)N2 .
73% (inactive)

Dear colleague, please send me the reported growth for NS(=O)(=O)c1ccc(-n2nc(-c3ccccc3)ccc2=O)cc1 when you can.
89.6% (inactive)

Quote growth reported for Cc1cnc(SCc2ccc(Cl)cc2)[nH]c1=S please.
99.4% (inactive)

Given COc1ccc(-c2nc(C#N)c(NCC(c3ccc(Cl)cc3)N3CCCCC3)o2)cc1 (stereo unspecified) , respond with its growth.
90.4% (inactive)

Given CN(C)C(CNc1oc(-c2cccc3ccccc23)nc1C#N)c1ccco1 (stereo unspecified) , respond with its growth.
91.3% (inactive)

Note growth for the compound shown: COc1ccc(N(C)c2nc(Cl)nc3ccn(C)c23)cc1
39.1% (inactive)

Note growth for the compound shown: COc1ccc(/C=C/C(=O)C(CC2CCC2)C(=O)/C=C/c2ccc(OC)c(OC)c2)cc1OC
-65.5% (active)

Provide one value: measured growth of Cc1cc(Nc2nc(SCc3ccc(C(=O)Nc4ccc(F)cc4N)cc3)nn3cccc23)n[nH]1
24.2% (inactive)

Note down growth recorded for CCN(CC)c1ccc2c(c1)Oc1nc(N)c(C#N)c(N)c1C2Sc1ccc(OC)cc1 (stereo unspecified)
-16.9% (active)

Using the record for CSc1nc(-c2ccco2)c2c(N)[nH]nc2n1 , state its measured growth.
92.2% (inactive)

State, in one line, measured growth of CC1(C)CC[C@]2(c3nnc(-c4ccncc4)o3)CC[C@]3(C)C(=CC[C@@H]4[C@@]5(C)CCC(=O)C(C)(C)[C@@H]5CC[C@]43C)[C@@H]2C1
67.3% (inactive)

Supply reported growth belonging to this compound: N#Cc1c(NC(=O)c2cccs2)[n+]([O-])c2cc(C(F)(F)F)ccc2[n+]1[O-]
96.8% (inactive)

Read the entry O=C1c2ccccc2C(=O)c2c1oc1c2c(=O)[nH]c2ccccc21 and write its reported growth.
88.7% (inactive)

Identify measured growth associated with CCC[S@](=O)c1ccc2nc(NC(=O)OC)[nH]c2c1
89.8% (inactive)

Given CS(=O)(=O)O[C@@H]1C(=O)N(c2cc3c4ccccc4ccc3c3ccccc23)[C@H]1c1ccc(F)cn1 , respond with its growth.
34% (inactive)

Quote growth reported for Sc1cccc2cccnc12 please.
-3.89% (active)

Let me know recorded growth for CN(C)CCCn1c2c(c3cc(-c4ccco4)ccc3c1=O)C(=O)c1ccccc1-2 , thanks.
50.9% (inactive)

Output growth of C=C1C(=O)O[C@H]2[C@H]1CC/C(COC(=O)c1cn(C)c3ccccc13)=C\CC[C@@]1(C)O[C@@H]21
-51.1% (active)

Given O=C1CC(c2ccc(O)c(O)c2)Oc2cc(O)c([C@@H]3O[C@H](CO)[C@@H](O)[C@H](O)[C@H]3O)c(O)c21 (stereo partly specified) , respond with its growth.
105% (inactive)

Query growth for CC1=C/C(=N\N=C2/C=C(C)CC(C)(C)C2)CC(C)(C)C1
93.8% (inactive)

Supply recorded growth for CCSc1nc(Cl)c(C#N)c(-c2ccc(F)cc2)n1 here.
93.4% (inactive)

State its growth: COc1cccc(NC(=O)Nc2ccc(Nc3ncnc4[nH]c(C)c(C)c34)cc2)c1
96.6% (inactive)

State its growth: CN(C)CSc1nc2ccccc2s1
95.9% (inactive)

Provide measured growth value, entry: CN(C)c1ccc(-c2ccc3[nH]c(=O)nc(-c4ccc(F)cc4)c3c2)cn1
28.4% (inactive)

Find the measured growth of CCN1CCC[C@H]1c1cc(O)c2c(c1OC)C[C@H]1C[C@H]3[C@H](N)C(=O)C(C(N)=O)=C(O)[C@@]3(O)C(=O)C1=C2O and report it.
-19% (active)

Give growth for O=c1c2ccccc2n(CC(O)CN2CCCC2)c2c(Br)cccc12 (stereo unspecified)
119% (inactive)
